target: UniProt:Q9UBN7
Sequence (Q9UBN7 whole entry): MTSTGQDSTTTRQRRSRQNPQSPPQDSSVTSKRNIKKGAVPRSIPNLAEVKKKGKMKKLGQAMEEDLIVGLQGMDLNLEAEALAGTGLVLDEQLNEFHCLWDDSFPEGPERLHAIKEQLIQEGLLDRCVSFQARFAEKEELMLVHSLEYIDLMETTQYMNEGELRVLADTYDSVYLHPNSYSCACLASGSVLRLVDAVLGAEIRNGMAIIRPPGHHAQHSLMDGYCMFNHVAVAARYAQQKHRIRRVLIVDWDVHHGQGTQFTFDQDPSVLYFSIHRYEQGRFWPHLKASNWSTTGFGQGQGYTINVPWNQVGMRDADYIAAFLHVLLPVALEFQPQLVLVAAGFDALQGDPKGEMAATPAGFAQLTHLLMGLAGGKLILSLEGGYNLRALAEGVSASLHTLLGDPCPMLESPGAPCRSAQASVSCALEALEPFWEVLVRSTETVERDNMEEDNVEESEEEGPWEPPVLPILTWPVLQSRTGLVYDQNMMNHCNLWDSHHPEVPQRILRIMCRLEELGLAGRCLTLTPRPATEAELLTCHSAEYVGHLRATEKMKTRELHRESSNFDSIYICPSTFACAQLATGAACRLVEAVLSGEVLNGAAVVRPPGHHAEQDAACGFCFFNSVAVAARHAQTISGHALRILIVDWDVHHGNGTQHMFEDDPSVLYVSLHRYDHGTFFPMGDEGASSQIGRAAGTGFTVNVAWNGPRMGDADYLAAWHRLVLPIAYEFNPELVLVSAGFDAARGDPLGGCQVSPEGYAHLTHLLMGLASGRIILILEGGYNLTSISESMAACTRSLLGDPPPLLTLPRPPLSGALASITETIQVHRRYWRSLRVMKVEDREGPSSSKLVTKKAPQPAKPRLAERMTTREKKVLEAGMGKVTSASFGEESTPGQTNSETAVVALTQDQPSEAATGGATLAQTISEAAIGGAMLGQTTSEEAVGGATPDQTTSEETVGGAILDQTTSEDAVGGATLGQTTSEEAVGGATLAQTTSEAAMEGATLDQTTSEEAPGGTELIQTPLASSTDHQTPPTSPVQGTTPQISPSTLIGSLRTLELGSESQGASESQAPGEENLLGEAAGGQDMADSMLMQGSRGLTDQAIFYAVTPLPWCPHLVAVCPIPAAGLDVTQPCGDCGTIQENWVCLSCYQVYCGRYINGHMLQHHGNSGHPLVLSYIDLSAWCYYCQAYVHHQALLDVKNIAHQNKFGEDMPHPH
pIC50: −log10 of the molar value.
Outcome label depends on pIC50 relative to 7: at/above gives 1, below gives 0.

// below: answered compounds
O=C(NO)c1cccc(/C=C/c2ccnc(-c3cc(F)ccc3O)c2)c1 | 0
Cc1ccc(-c2cc(/C=C/c3ccc(C(=O)NO)cc3)ccn2)c(F)c1 | 1
O=C(NO)c1cccc(/C=C/c2ccnc(-c3ccccc3O)c2)c1 | 0

Kindly review the next compound as well.
Assess whether reported pIC50 for O=C(NO)c1ccc(/C=C/c2cccc(-c3cccc(O)c3)c2)cc1 sits at 7 or higher.
0

---

Kindly state pIC50 for each of the entries shown.
tested on: MGC-803; assay: cells; conditions: Homo sapiens, MGC-803, 72 h
pIC50: −log10 of the molar value.

Cc1ccc(-c2cc(/C=C/c3ccc(C(=O)NO)cc3)c(F)cn2)cc1 | < 5.00
O=C(NO)c1ccc(/C=C/c2cccc(-c3cc(F)ccc3O)c2)cc1 | < 5.00

Fill in: pIC50 of O=C(NO)c1ccc(/C=C/c2ccnc(Br)c2)cc1 is ___
< 5.00
